Test system: K-562
Assay: Alamar Blue cell proliferation assay, K-562
Type: cell-based
Settings: Homo sapiens, K562, Table 4, read-out: AB: K-562
MEASUREMENT_LABEL: IC50 (nM)
Respond with the bare value in nM.

Below: 2 compounds and their reported IC50.
CCN(CC)CCC(=O)Nc1cccc(-c2ccc(/C=C3/C(=O)Nc4ccccc43)o2)c1 [drawing 235]	472
O=C(CN1CCCC1)Nc1cccc(-c2ccc(/C=C3/C(=O)Nc4ccccc43)o2)c1 [drawing 236]	1370

Continue with the compound presented below.
# IC50 of CN(C)CCNC(=O)c1cccc(-c2ccc(/C=C3/C(=O)Nc4ccc(Cl)cc43)o2)c1 [drawing 232] = 367

----------
pIC50 overview
Biological target: recombinant human FLT-3 (Homo sapiens, UniProt P36888)
Sequence (P36888 27-993): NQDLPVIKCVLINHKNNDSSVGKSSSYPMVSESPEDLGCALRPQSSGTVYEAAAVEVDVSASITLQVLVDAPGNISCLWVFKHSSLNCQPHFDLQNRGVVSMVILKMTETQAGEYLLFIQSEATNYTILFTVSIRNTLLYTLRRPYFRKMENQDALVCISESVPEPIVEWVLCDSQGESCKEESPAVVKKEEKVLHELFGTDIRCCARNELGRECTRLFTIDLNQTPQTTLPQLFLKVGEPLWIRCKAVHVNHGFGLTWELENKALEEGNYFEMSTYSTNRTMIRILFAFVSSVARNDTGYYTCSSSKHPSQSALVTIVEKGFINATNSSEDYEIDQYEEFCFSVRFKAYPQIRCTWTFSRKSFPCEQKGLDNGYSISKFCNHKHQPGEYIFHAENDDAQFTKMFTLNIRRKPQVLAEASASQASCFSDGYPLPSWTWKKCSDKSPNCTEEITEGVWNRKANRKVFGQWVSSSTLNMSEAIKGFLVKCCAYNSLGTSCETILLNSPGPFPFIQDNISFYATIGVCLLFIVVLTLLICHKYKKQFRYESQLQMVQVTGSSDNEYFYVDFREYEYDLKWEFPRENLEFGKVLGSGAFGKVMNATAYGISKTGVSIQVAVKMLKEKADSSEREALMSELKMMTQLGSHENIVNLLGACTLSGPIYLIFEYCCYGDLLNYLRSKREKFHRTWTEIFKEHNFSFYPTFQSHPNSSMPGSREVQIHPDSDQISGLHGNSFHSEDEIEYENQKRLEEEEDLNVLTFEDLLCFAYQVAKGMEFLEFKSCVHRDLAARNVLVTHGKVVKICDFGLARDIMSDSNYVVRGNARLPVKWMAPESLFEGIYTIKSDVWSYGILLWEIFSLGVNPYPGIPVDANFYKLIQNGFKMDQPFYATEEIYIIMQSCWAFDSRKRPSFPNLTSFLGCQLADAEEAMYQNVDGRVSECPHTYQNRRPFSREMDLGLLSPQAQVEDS
Test: FLT-3 kinase activity, cell free in vitro assay
Conditions: Table 7; 10 uM ATP; read-out: FLT3_RB: IC50
Please report pIC50 as the negative decimal logarithm of the molar concentration, giving only the number.

O=C1Nc2ccccc2/C1=C\c1ccc(-c2ccc(Cl)c(C(=O)NCCN3CCCC3)c2)o1 [drawing 261]	6.68
O=C1Nc2ccccc2/C1=C\c1ccc(-c2ccc(C(=O)NCCN3CCCC3)cc2)o1	7.00
O=C1Nc2ccc(F)cc2/C1=C\c1ccc(-c2cccc(C(=O)NCc3ccncc3)c2)o1 [drawing 264]	6.83
Cn1cncc1CNC(=O)c1cccc(-c2ccc(/C=C3/C(=O)Nc4ccc(F)cc43)o2)c1 [drawing 265]	7.00

Now let's try a different one.
// pIC50 lookup, compound = O=C1Nc2ccc(F)cc2/C1=C\c1ccc(-c2cccc(C(=O)NC3CC3)c2)o1 [drawing 263] , result: 6.51

----------
Target: recombinant PIM-1 (Homo sapiens, UniProt P11309)
Sequence (P11309 whole entry): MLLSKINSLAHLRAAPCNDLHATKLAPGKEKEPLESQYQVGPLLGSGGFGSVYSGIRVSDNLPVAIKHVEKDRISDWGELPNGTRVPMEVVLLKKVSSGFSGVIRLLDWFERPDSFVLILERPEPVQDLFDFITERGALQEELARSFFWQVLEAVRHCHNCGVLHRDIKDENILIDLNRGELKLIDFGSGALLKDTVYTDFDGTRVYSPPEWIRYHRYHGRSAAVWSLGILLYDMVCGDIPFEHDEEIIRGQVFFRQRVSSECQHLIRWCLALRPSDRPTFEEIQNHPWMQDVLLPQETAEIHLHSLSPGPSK
Assay: PIM-1 kinase assay (radiometric, 15 uM ATP, DMSO 4%)
Type: biochemical
Conditions: Table 1; % inhibition at the high dose (2 micromolar) in a single screening assay; 15 μM ATP
Listed next: entries and their corresponding inhibition at 2 µM.
API: value field is a number in %; no unit string.

Here is how some compounds turned out for inhibition at 2 µM.
CON(C)C(=O)c1cccc(-c2ccc(/C=C3/C(=O)Nc4ccc(Cl)cc43)o2)c1 [Compound 176]	-59.6
CCN1CCCC1CNC(=O)c1ccc(-c2ccc(/C=C3/C(=O)Nc4ccc(F)cc43)o2)cc1 (stereo not shown) [Compound 84]	91.3
O=C1Nc2ccc(F)cc2/C1=C\c1ccc(-c2cccc(C(=O)NC3CC3)c2)o1 [Compound 20]	46
O=C1Nc2ccc(F)cc2/C1=C\c1ccc(-c2ccc(Cl)c(C(=O)NCCN3CCCC3)c2)o1 [Compound 73]	20.9
CN1CCCCC1CNC(=O)c1cccc(-c2ccc(/C=C3/C(=O)Nc4cc(F)ccc43)o2)c1 (stereo not shown) [Compound 40]	33.9

Reading of inhibition at 2 µM for CN1CCCCC1CNC(=O)c1ccccc1-c1ccc(/C=C2/C(=O)Nc3ccccc32)o1 (stereo not shown) [Compound 60] with recombinant PIM-1 (Homo sapiens, UniProt P11309): 0.33

O=C1Nc2ccccc2/C1=C\c1ccc(-c2ccc(Cl)c(C(=O)NCCN3CCCC3)c2)o1 [Compound 11] tested on recombinant PIM-1 (Homo sapiens, UniProt P11309) gave inhibition at 2 µM: 5.6

----------
# maps each entry to its IC50
Molecular target: recombinant PIM-1 (Homo sapiens, UniProt P11309)
Test: PIM-1 kinase assay (radiometric, 15 uM ATP, DMSO 4%)
Format: biochemical
Settings: Table 1; given for compounds with IC50 at or below 2 micromolar; 15 uM ATP; read-out: PIM-1 IC50

Example results:
O=C1Nc2ccccc2/C1=C\c1ccc(-c2ccc(CO)cc2)o1 [Compound 164]	< 2 µM
Nc1cccc(-c2ccc(/C=C3/C(=O)Nc4ccccc43)o2)c1 [Compound 183]	< 2 µM
O=C1Nc2ccc(Cl)cc2/C1=C\c1ccc(-c2cccc(C(=O)NCc3cccnc3)c2)o1 [Compound 116]	< 1 µM
O=C1Nc2ccc(Cl)cc2/C1=C\c1ccc(-c2cccc(C(=O)NCCN(CCO)CCO)c2)o1 [Compound 193]	< 1 µM
CCN(CC)CC(=O)Nc1cccc(-c2ccc(/C=C3/C(=O)Nc4ccccc43)o2)c1 [Compound 187]	< 1 µM

Considering O=C(CN1CCCC1)Nc1cccc(-c2ccc(/C=C3/C(=O)Nc4ccccc43)o2)c1 [Compound 186] , its IC50 with recombinant PIM-1 (Homo sapiens, UniProt P11309) was recorded as < 1 µM

# value of IC50, recombinant PIM-1 (Homo sapiens, UniProt P11309), item CN(C)CCNC(=O)c1cccc(-c2ccc(/C=C3/C(=O)Nc4ccc(Cl)cc43)o2)c1 [Compound 118] = < 1 µM

Item NC(=O)c1cccc(-c2ccc(/C=C3/C(=O)Nc4ccccc43)o2)c1 [Compound 166] was tested on recombinant PIM-1 (Homo sapiens, UniProt P11309); the reported IC50 is < 1 µM

The measurements presented in this section are drawn from patent US20120190669A1.
